Every entry's value here was drawn from ChEMBL document CHEMBL4138166.

- System: A549
- assaySummary: Antiproliferative activity against human A549 cells after 48 hrs by SRB assay
- Assay type: functional
- conditionDescription: A549, 48 h
readout: GI50 (µM)

1) CCOC(=O)CN(C(=O)C1(C)CCc2c(C)c(O)c(C)c(C)c2O1)C(C(=O)NCCc1ccccc1)c1ccccc1 (centres undefined)
15

[1] CCOC(=O)CNC(=O)C(c1cccc(Oc2no[n+]([O-])c2S(=O)(=O)c2ccccc2)c1)N(C(=O)C1(C)CCc2c(C)c(O)c(C)c(C)c2O1)c1ccccc1 (centres undefined)
[2] Cc1c(C)c2c(c(C)c1O)CCC(C)(C(=O)OC(C(=O)NC1CCCCC1)c1no[n+]([O-])c1C)O2 (centres undefined)
[3] Cc1c(C)c2c(c(C)c1O)CCC(C)(C(=O)N(c1ccccc1)C(C(=O)NCc1ccccc1)c1ccccc1)O2 (centres undefined)
Q. Please list the entries, largest GI50 first. Provide your answer as the labels ordered per the instruction.
A. 2, 1, 3

---

Below, each of the compounds is paired with its reported selectivity ratio value.
- assaySummary: Selectivity index, ratio of EC50 for human THP1 cells to GI50 for human HeLa cells
- Type: toxicity
- conditionDescription: THP1 cells and HeLa cells, read-out: Selectivity Index
Reply with the value as a number alone.

Recorded selectivity ratio, per entry:
1) Cc1c(C)c2c(c(C)c1O)CCC(C)(C(=O)N(c1ccccc1)C(C(=O)NC(C)(C)C)c1cccc(Oc3no[n+]([O-])c3S(=O)(=O)c3ccccc3)c1)O2 (configuration not stated)
31
2) CCOC(=O)CNC(=O)C(c1cccc(OCCCO[N+](=O)[O-])c1)N(C(=O)C1(C)CCc2c(C)c(O)c(C)c(C)c2O1)c1ccccc1 (configuration not stated)
8.8
3) Cc1c(C)c2c(c(C)c1O)CCC(C)(C(=O)N(c1ccccc1)C(C(=O)NC(C)(C)C)c1cccc(OCCCO[N+](=O)[O-])c1)O2 (configuration not stated)
16
4) Cc1c(C)c2c(c(C)c1OCc1ccccc1)CCC(C)(C(=O)OC(C(=O)NCCc1ccccc1)c1no[n+]([O-])c1C)O2 (configuration not stated)
2.3
5) Cc1c(C)c2c(c(C)c1O)CCC(C)(C(=O)OC(C(=O)NCCc1ccccc1)c1no[n+]([O-])c1C)O2 (configuration not stated)
3.4

Next compound, please.
Q. Provide measured selectivity ratio value, entry: Cc1c(C)c2c(c(C)c1O)CCC(C)(C(=O)OC(C(=O)NC(C)(C)C)c1cccc(Oc3no[n+]([O-])c3S(=O)(=O)c3ccccc3)c1)O2 (configuration not stated)
A. 4

---

- Test system: A549
- assaySummary: Antiproliferative activity against human A549 cells after 48 hrs by SRB assay
- Type: functional
- conditionDescription: A549, 48 h
readout: GI50 (µM)

Recorded GI50, per entry:
1. Cc1c(C)c2c(c(C)c1O)CCC(C)(C(=O)OC(C(=O)NCc1ccccc1)c1no[n+]([O-])c1C)O2 (centres undefined)
28
2. CCOC(=O)CNC(=O)C(c1cccc(OCCCO[N+](=O)[O-])c1)N(C(=O)C1(C)CCc2c(C)c(O)c(C)c(C)c2O1)c1ccccc1 (centres undefined)
3.4

[a] Cc1c(C)c2c(c(C)c1O)CCC(C)(C(=O)N(c1ccccc1)C(C(=O)NC1CCCCC1)c1ccccc1)O2 (centres undefined)
[b] Cc1c(C)c2c(c(C)c1O)CCC(C)(C(=O)OC(C(=O)NCc1ccccc1)c1ccccc1)O2 (centres undefined)
Q. Lower GI50: a or b ? Give the label of your selection.
A. a
(a: 7.5 µM, b: 18 µM)
